The reported numbers originate from the emibetuzumab library of Makowski et al. (2022).

B1: VH:VL chains; a variant is named by its letters at X, in order (parent)
chain 1: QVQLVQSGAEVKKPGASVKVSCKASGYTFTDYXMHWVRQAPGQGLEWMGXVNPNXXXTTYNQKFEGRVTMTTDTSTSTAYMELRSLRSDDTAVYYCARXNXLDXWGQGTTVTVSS
chain 2: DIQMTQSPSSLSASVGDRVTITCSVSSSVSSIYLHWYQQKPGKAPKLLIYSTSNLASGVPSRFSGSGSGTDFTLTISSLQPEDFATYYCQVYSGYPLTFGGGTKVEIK

# Variants of: B1
# assay procedure: yeast display scFab, FACS + sequencing
measured quantity: non-specific binding call

Examples with their reported non-specific binding call follow.
mutations: YAGKGAWV
non-specific binding call: binds
--
mutations: FRTRGSSD
non-specific binding call: binds
--
mutations: VRRGDSVA
non-specific binding call: binds
--
mutations: YKGKGSGF
non-specific binding call: binds

Quick one: non-specific binding call of `VKGKGDAV` ? no binding

Quick one: non-specific binding call of `VEEEGDWD` ? no binding

Quick one: non-specific binding call of `DKEGGDVA` ? no binding

Quick one: non-specific binding call of `VAGGDDVA` ? no binding

Quick one: non-specific binding call of `YRRRGSWD` ? binds

Quick one: non-specific binding call of `YARAGSVS` ? binds

Quick one: non-specific binding call of `YTAAADLV` ? binds
